Test system: CDKL3;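 note: KINOMEscan kinase panel screen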
EXPERIMENTAL_CONDITIONS: concentration: 1 μM, replicates: in singlicate; n = 1
QUANTITY_NAME: %Inh

CC(C)(C)c1ccc(C(=O)Nc2cn3cc(-c4ccccc4)ccc3n2)cc1	0%
O=C(NCc1cccs1)c1cc(C(=O)c2c(Cl)cccc2Cl)c[nH]1	21%
CCC(=O)c1c(-c2ccccc2)c2cc(Cl)ccc2c(=O)n1Cc1cc(S(C)(=O)=O)n(CC(N)=O)n1	16%
COC(=O)c1c(-c2ccccc2)c2cc(Br)ccc2c(=O)n1Cc1ccc(S(C)(=O)=O)cc1	22%
CCn1c(-c2ccoc2)nc2cnccc21	0%
CCCC(=O)Nc1n[nH]c2ncc(-c3cccc4ccccc34)cc12	0%
Cc1nnc(-c2ccc3ncn(-c4ccc(S(C)=O)cc4)c3c2)o1 (centres unmarked)	2%
COc1ccc(-c2cc3c(C)nc(N)nc3n([C@H]3CC[C@H](OCCO)CC3)c2=O)cn1	29%

Data origin: paper PMC5540273
